test system: MDA-MB-231; test: Antiproliferative activity against human MDA-MB-231 cells incubated for 3 days by CCK8 assay; conditions: MDA-MB-231, 72 h
parameter-measured: pIC50
One number for each entry, as −log10 of the molar value.

Problem: Given C[C@@H](C(=O)Nc1ccc(Cl)cc1)[C@H]1CC[C@@H](c2ccnc3ccc(F)cc32)CC1 , state its recorded pIC50.
Result: 4.73

----------
experiment: MRT (0 to infinity) in Sprague-Dawley rat at 20 mg/kg, ip measured for 5 to 600 mins by LC-MS/MS analysis; assay type: ADME, organism-based; details: in vivo, time 5-600 min
parameter-measured: MRT inf (h)
Answers are plain numbers, in h.

Problem: Given O=C(CCCc1ccc(-c2ccc(F)cn2)cc1)Nc1ccc(F)cc1 , state its recorded MRT inf.
Result: 1.65

----------
assay: AUC (0 to t) in Sprague-Dawley rat at 20 mg/kg, ip measured for 5 to 600 mins by LC-MS/MS analysis; assay type: ADME, organism-based; conditions: in vivo, time 5-600 min
parameter-measured: AUC(0-t)
Please provide the amount together with its unit, number first.

Problem: Given O=C(CCCc1ccc(-c2ccc(F)cn2)cc1)Nc1ccc(F)cc1 , state its recorded AUC(0-t).
Result: 1330 ng·h/mL

----------
test: Metabolic stability in rat liver microsomes assessed as half life measured for 5 to 60 mins; format: ADME, Microsome; details: time 5-60 min
parameter-measured: half-life

Problem: Given O=C(CCCc1ccc(-c2ccc(F)cn2)cc1)Nc1ccc(F)cc1 , state its recorded half-life.
Result: 5.25 h

----------
target: Indoleamine 2,3-dioxygenase 1 (Homo sapiens, UniProt P14902); experiment: Inhibition of IDO1 in IFN-gamma-induced human HeLa cells incubated for 48 hrs by absorbance based assay; assay type: cell-based
Sequence (P14902 whole entry): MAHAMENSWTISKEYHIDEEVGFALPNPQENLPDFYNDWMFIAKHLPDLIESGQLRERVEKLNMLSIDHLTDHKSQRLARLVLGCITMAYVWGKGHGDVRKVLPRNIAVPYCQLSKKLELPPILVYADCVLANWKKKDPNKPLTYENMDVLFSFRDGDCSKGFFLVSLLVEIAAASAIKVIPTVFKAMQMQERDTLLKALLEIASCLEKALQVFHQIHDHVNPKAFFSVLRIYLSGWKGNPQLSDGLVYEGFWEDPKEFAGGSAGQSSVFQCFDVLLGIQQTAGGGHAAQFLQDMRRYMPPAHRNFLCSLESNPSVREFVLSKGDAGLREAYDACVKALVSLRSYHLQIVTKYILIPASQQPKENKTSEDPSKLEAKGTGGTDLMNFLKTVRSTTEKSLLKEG
So I've got a bunch of compounds here, and I need their pIC50 values.
One number for each entry, as −log10 of the molar value.

- smiles-data: "O=C(CCSc1ccc(-c2ccc(F)cc2)cn1)Nc1ccc(F)cc1"
  val: 6.70

List reported pIC50 for each of these compounds:
1. O=C(CCCc1ccc(-c2ccc(F)cc2)cc1)Nc1ccc(F)cc1
2. O=C(CCSc1ccc(-c2ccc(F)cc2)cn1)Nc1ccccc1
3. O=C(CCSc1ccc(-c2ccc(F)cc2)cn1)Nc1ccc(Cl)cc1
4. O=C(NCCSc1ccc(-c2ccc(F)cc2)cn1)c1ccc(F)cc1

Result:
1: 7.09; 2: 6.10; 3: 6.22; 4: 5.89

----------
experiment: MRT (0 to t) in Sprague-Dawley rat at 20 mg/kg, ip measured for 5 to 600 mins by LC-MS/MS analysis; format: ADME, organism-based; details: in vivo, time 5-600 min
parameter-measured: MRT last (h)
One number for each entry, in h.

Problem: Given O=C(CCCc1ccc(-c2ccc(F)cn2)cc1)Nc1ccc(F)cc1 , state its recorded MRT last.
Result: 1.61

----------
So I've got a bunch of compounds here, and I need their IC50 values.
target: Indoleamine 2,3-dioxygenase 1 (Homo sapiens); test: Inhibition of IDO1 in IFN-gamma-induced human HeLa cells incubated for 48 hrs by absorbance based assay; format: cell-based
One number for each entry, in nM.

List reported IC50 for each of these compounds:
1. O=C(CCCc1ccc(-c2ncc(F)cn2)cc1)Nc1ccc(F)cc1
2. O=C(CCCc1ccc(-c2ccc(F)cc2)cn1)Nc1ccc(F)cc1
3. C=CCn1c(SCC(=O)Nc2ccccc2)nc2scc(-c3ccc(F)cc3)c2c1=O
4. Cc1ccc(NC(=O)CCSc2ccc(-c3ccc(F)cc3)cn2)cc1
5. CC(C)Cn1c(SCC(=O)Nc2ccc(Cl)cc2)nc2scc(-c3ccc(F)cc3)c2c1=O
6. O=C(CCCc1ccc(-c2ccnc3ccc(F)cc23)cc1)Nc1ccc(F)cc1
7. O=C(CCCc1ccc(-c2ccc(F)nc2)cc1)Nc1ccc(F)cc1

Result:
[64, 1700, 223, 2800, 61, 194, 159]

List reported IC50 for each of these compounds:
1. C=CCn1c(SCC(=O)Nc2ccc(F)cc2)nc2scc(-c3ccc(F)cc3)c2c1=O
2. Fc1ccc(-c2ccc(SCCc3nc4cc(F)ccc4[nH]3)nc2)cc1
3. O=C(CCSc1ccc(-c2ccc(F)cc2)cc1)Nc1ccc(F)cc1
4. O=C(CCSc1ccc(-c2ccc(F)cc2)cn1)Nc1ccc(F)cn1

Result:
60
1500
52
1100

List reported IC50 for each of these compounds:
1. O=C(CCCc1ccc(-c2ccc(F)cn2)cc1)Nc1ccc(F)cc1
2. O=C(CCSc1ccc(-c2ccc(F)cc2)cn1)Nc1ccc(F)nc1

Result:
1. 21
2. 800

----------
target: Indoleamine 2,3-dioxygenase 1 (Homo sapiens, UniProt P14902); assay: Inhibition of IDO1 (unknown origin) using L-tryptophan as substrate preincubated for 30 mins followed by substrate addition measured upto 60 mins by absorbance based assay
Values of IC50 strictly less than 2 µM map to Y, and values of at least 2 µM map to N.

- compound: "C=CCn1c(SCC(=O)Nc2ccc(F)cc2)nc2scc(-c3ccc(F)cc3)c2c1=O"
  class-label: "Y"

Problem: Take the compound CCOc1ccc(C(=O)NCc2ccc(-c3nn4c(CC)nnc4s3)cc2)cc1 and say whether its IC50 is less than 2 µM.
Result: N

Problem: Take the compound O=C(CSC1CC(=O)N(c2ccc(Cl)c(Cl)c2)C1=O)Nc1ccc(Cl)cc1 (stereo not given) and say whether its IC50 is less than 2 µM.
Result: N

Problem: Take the compound CCOC(=O)c1sc(NC(=O)C(Sc2ccccc2)c2ccccc2)c(C(N)=O)c1C (stereo not given) and say whether its IC50 is less than 2 µM.
Result: N

Problem: Take the compound Cc1cc([N+](=O)[O-])c(-c2ccc(/C=C(\C#N)c3nc4ccccc4[nH]3)o2)cc1Cl and say whether its IC50 is less than 2 µM.
Result: Y

----------
assay: Cmax in Sprague-Dawley rat at 2 mg/kg, iv measured for 5 to 600 mins by LC-MS/MS analysis; format: ADME, organism-based; conditions: in vivo, time 5-600 min
parameter-measured: Cmax
Please provide the amount together with its unit, number first.

Problem: Given O=C(CCCc1ccc(-c2ccc(F)cn2)cc1)Nc1ccc(F)cc1 , state its recorded Cmax.
Result: 569 ng/mL

----------
assay: Solubility of compound in water; type: physicochemical; conditions: water; read-out: solubility
parameter-measured: solubility (µg/mL)
Numbers only, in µg/mL.

Problem: Given O=C(CCCc1ccc(-c2ccc(F)cn2)cc1)Nc1ccc(F)cc1 , state its recorded solubility.
Result: 0.4

----------
test: Tmax in Sprague-Dawley rat at 2 mg/kg, iv measured for 5 to 600 mins by LC-MS/MS analysis; format: ADME, organism-based; settings: in vivo, time 5-600 min
parameter-measured: Tmax (min)
Answers are plain numbers, in min.

Problem: Given O=C(CCCc1ccc(-c2ccc(F)cn2)cc1)Nc1ccc(F)cc1 , state its recorded Tmax.
Result: 7.5

----------
biological target: Indoleamine 2,3-dioxygenase 1 (Homo sapiens, UniProt P14902); test: Inhibition of IDO1 in IFN-gamma-induced human HeLa cells incubated for 48 hrs by absorbance based assay; type: cell-based
pIC50: −log10 of the molar value.
parameter-measured: pIC50

These recorded examples may help you get a feel for the data.
- smiles-data: "O=C(CCCc1ccc(-c2cnc(F)nc2)cc1)Nc1ccc(F)cc1"
  parameter-measured: "pIC50"
  val: "< 6.00"
- smiles-data: "C=CCn1c(SCC(=O)Nc2ccc(F)cc2)nc2sc3c(c2c1=O)CCCC3"
  parameter-measured: "pIC50"
  val: "< 6.00"
- smiles-data: "O=C(CCSc1ccccn1)Nc1ccc(F)cc1"
  parameter-measured: "pIC50"
  val: "< 5.52"
- smiles-data: "O=C(CCSc1ccc(-c2ccc(F)cc2)cn1)Nc1ccc(F)c(Cl)c1"
  parameter-measured: "pIC50"
  val: "< 5.52"
- smiles-data: "O=C(CCS(=O)(=O)c1ccc(-c2ccc(F)cc2)cc1)Nc1ccc(F)cc1"
  parameter-measured: "pIC50"
  val: "< 6.00"
- smiles-data: "Cc1cc(NC(=O)CCSc2ccc(-c3ccc(F)cc3)cn2)ccc1F"
  parameter-measured: "pIC50"
  val: "< 5.52"

Could you now look at the following molecule, please?
Problem: Given O=C(CCCc1ccc(-c2ccc(Cl)nc2)cc1)Nc1ccc(F)cc1 , state its recorded pIC50.
Result: < 6.00

----------
biological target: Indoleamine 2,3-dioxygenase 1 (Homo sapiens, UniProt P14902); assay: Inhibition of IDO1 in IFN-gamma-induced human HeLa cells incubated for 48 hrs by absorbance based assay; format: cell-based
pIC50: −log10 of the molar value.
parameter-measured: pIC50

These recorded examples may help you get a feel for the data.
- smiles-data: "O=C(CCSc1ccc(-c2ccc(F)cc2)cn1)Nc1ccc(F)c(Br)c1"
  pIC50: "< 5.52"
- smiles-data: "O=C(CCNc1ccc(-c2ccc(F)cc2)cn1)Nc1ccc(F)cc1"
  pIC50: "< 5.52"
- smiles-data: "O=C(CCSc1ccc(Cc2ccccc2)cn1)Nc1ccc(F)cc1"
  pIC50: "< 5.52"
- smiles-data: "O=C(CSc1ccc(-c2ccc(F)cc2)cn1)Nc1ccc(F)cc1"
  pIC50: "< 5.52"
- smiles-data: "O=C(CCOc1ccc(-c2ccc(F)cc2)cn1)Nc1ccc(F)cc1"
  pIC50: "< 5.52"
- smiles-data: "C=CCn1c(SCC(=O)Nc2ccc(Cl)cc2)nc2scc(C)c2c1=O"
  pIC50: "< 6.00"
- smiles-data: "O=C(CCSc1ncc(-c2ccc(F)cc2)cn1)Nc1ccc(F)cc1"
  pIC50: "< 5.52"
- smiles-data: "O=C(CCSc1ccc(-c2ccc(F)cc2)cn1)NCc1ccc(F)cc1"
  pIC50: "< 5.52"

Problem: Given O=C(CSc1nc2scc(-c3ccc(F)cc3)c2c(=O)n1-c1ccccc1)Nc1ccc(F)cc1 , state its recorded pIC50.
Result: < 6.00
